Cited source for all entries: ChEMBL document CHEMBL1201862

System: NCI-H522
Test protocol: NCI tumour cell line growth inhibition, 48 h
Where a name gives a salt, the structure may show the parent alone. Calls of active or inactive are those of the source. Cut-off read from the data, not from the text of the source: active = GI50 up to about 1.1 µM and inactive = higher.
Assay metric: GI50

[
  {
    "Compound": "CC(C)(C)c1cc(C(C)(C)C)c2c(c1O)OC(=O)CS2",
    "Assay result": "4.06 µM (inactive)"
  },
  {
    "Compound": "O/N=C1/C(=C/c2ccc(OCc3ccccc3)cc2)CCCC1C(NO)c1ccc(OCc2ccccc2)cc1 (configuration not stated)",
    "Assay result": "6.27 µM (inactive)"
  },
  {
    "Compound": "Cc1cc(NS(=O)(=O)c2ccc(NC(=O)c3cccc4c(NNc5ccc(S(N)(=O)=O)cc5)c5ccccc5nc34)cc2)no1",
    "Assay result": "25 µM (inactive)"
  },
  {
    "Compound": "NNC(=O)N/N=C(/CC1(O)C(=O)Nc2ccc(Br)cc21)c1ccccc1 (configuration not stated)",
    "Assay result": "18.8 µM (inactive)"
  },
  {
    "Compound": "S=C(N/N=C(/c1ccccc1)c1ccccn1)N1CCCCCC1",
    "Assay result": "0.0731 µM (active)"
  },
  {
    "Compound": "O=C1c2c(ccc3c2CCC3)CC12Cc1cc3c(cc1C2)CCC3",
    "Assay result": "> 100 µM (inactive)"
  },
  {
    "Compound": "CCOC(=O)C1=C(C)C(C(=O)OC)/C(=C/c2cccc3cccnc23)C1=O (configuration not stated)",
    "Assay result": "> 10 µM (inactive)"
  },
  {
    "Compound": "C=C(C)CCC1CC=[N+]([O-])OC1C(C)(C)C (configuration not stated)",
    "Assay result": "24.2 µM (inactive)"
  },
  {
    "Compound": "COc1cc2nc(-c3cccs3)[nH]c(=O)c2cc1OC",
    "Assay result": "> 100 µM (inactive)"
  },
  {
    "Compound": "COc1cc2c(cc1OC)CC(=O)c1cc(OC)c(OC)cc1/C=C\\2",
    "Assay result": "9.44 µM (inactive)"
  },
  {
    "Compound": "COc1ccc2[nH]c3c4c(ccc3c2c1)C(=O)C=CC4=O",
    "Assay result": "1.74 µM (inactive)"
  },
  {
    "Compound": "NCCCCN [PUTRESCINE HYDROCHLORIDE]",
    "Assay result": "> 100 µM (inactive)"
  },
  {
    "Compound": "COC(=O)C(=NNc1ccccc1[N+](=O)[O-])C(=O)OC",
    "Assay result": "> 100 µM (inactive)"
  },
  {
    "Compound": "CN(C)CCCc1cccnc1",
    "Assay result": "> 100 µM (inactive)"
  },
  {
    "Compound": "CC1=CC(O)C(C(O)(C(F)(F)F)C(F)(F)F)C(C)(C)C1 (configuration not stated)",
    "Assay result": "> 10 µM (inactive)"
  },
  {
    "Compound": "COC(=O)[C@@H]1C[C@]2(CC=C(C)C)c3ccccc3N(S(=O)(=O)c3ccccc3)[C@@H]2N1C(=O)OC",
    "Assay result": "10.3 µM (inactive)"
  },
  {
    "Compound": "CC1=C(C(=O)Nc2ccccc2C)C(c2ccccc2C)C(C(=O)Nc2ccccc2C)=C(C)N1",
    "Assay result": "14.8 µM (inactive)"
  }
]
